- targetOrSystem: OGA (Homo sapiens, UniProt O60502)
- Construct: HEK293 cells inducible for P301L mutant human Tau (isoform 2N4R) were established at Janssen; endogenous in cells; host or cells: HEK293 cells inducible for P301L mutant human Tau (2N4R)
- Sequence (O60502 1-916): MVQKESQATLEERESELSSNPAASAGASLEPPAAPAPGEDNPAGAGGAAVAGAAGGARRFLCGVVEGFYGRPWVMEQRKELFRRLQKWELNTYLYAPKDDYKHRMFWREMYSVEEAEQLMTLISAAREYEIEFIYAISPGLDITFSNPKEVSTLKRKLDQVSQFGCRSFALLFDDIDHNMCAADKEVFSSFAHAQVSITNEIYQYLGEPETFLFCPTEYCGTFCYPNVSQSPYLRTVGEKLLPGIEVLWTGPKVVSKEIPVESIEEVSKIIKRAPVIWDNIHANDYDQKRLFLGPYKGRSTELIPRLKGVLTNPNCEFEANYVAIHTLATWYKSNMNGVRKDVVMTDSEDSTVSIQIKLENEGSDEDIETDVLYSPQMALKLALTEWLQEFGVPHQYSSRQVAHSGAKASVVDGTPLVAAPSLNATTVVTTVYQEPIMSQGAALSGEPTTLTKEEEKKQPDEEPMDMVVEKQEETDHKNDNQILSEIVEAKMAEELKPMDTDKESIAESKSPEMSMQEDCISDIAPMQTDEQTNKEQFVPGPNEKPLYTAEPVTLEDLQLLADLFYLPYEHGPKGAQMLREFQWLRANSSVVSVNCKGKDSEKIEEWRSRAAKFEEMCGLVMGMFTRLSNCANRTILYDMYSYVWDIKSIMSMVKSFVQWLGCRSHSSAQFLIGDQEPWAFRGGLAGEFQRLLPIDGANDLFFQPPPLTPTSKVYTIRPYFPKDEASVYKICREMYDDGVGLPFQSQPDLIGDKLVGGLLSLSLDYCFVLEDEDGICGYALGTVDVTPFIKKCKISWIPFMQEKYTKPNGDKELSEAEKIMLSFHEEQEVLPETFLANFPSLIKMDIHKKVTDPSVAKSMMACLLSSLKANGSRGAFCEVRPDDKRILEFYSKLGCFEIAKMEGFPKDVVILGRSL
- protocolSummary: OGA cellular assay (ICC detection of O-GlcNAcylated proteins in HEK293 cells inducible for P301L mutant human Tau)
- Type: cell-based
- experimentalSetup: HEK293, HEK293 cells inducible for P301L mutant human Tau, 6 hours incubation; maximum = Thiamet G 200 uM
Emax by entry:

molecule: Cc1cc(OC2CCN(C(C)c3ccc4c(n3)OCCO4)CC2)cc(C(F)F)n1 (stereo not drawn)
Emax (%): 61
--
molecule: Cc1cc(C)c(OC2CCN(C(C)c3nc4c(cc3F)OCCO4)CC2)nn1 (stereo not drawn)
Emax (%): 59
--
molecule: Cc1cnnc(OC2CCN(C(C)c3ccc4c(n3)OCCO4)CC2)c1 (stereo not drawn)
Emax (%): 35
--
molecule: CC(c1ccc2c(n1)OCCO2)N1CCC(COc2ccc(C(F)(F)F)cn2)CC1 (stereo not drawn)
Emax (%): 25
--
molecule: CC(c1ccc2c(n1)OCCO2)N1CCC(Oc2cnc(Cl)c(F)c2)CC1 (stereo not drawn)
Emax (%): 68
--
molecule: Cc1ncc(COC2CCN([C@@H](C)c3nc4c(cc3F)OCCO4)CC2)cn1 (single isomer, unassigned)
Emax (%): 25
--
molecule: COc1cc(OC2CCN(C(C)c3ccc4c(n3)OCCO4)CC2)cc(C)n1 (stereo not drawn)
Emax (%): 82
--
molecule: Cc1nccnc1OC1CCN(C(C)c2nc3c(cc2F)OCCO3)CC1 (stereo not drawn)
Emax (%): 77
--
molecule: Cc1cc(COC2CCN(C(C)c3ccc4c(n3)OCCO4)CC2)cc(C)n1 (stereo not drawn)
Emax (%): 63
--
molecule: COc1cc(OC2CCN(C(C)c3nc4nc(C)sc4cc3F)CC2)cc(C)n1 (stereo not drawn)
Emax (%): 72
--
molecule: Cc1cc(OC2CCN(C(C)c3nc4c(cc3F)OCCO4)CC2)cnc1C (stereo not drawn)
Emax (%): 85
--
molecule: Cc1cc(OC2CCN(C(C)c3cnc4c(c3)OCCO4)CC2)cc(C(F)(F)F)n1 (stereo not drawn)
Emax (%): 17
--
molecule: CC(c1ccc2c(n1)OCCO2)N1CCC(Oc2ncccc2C#N)CC1 (stereo not drawn)
Emax (%): 9
--
molecule: Cc1cc(COC2CCN(Cc3ccc4sc(C)nc4n3)CC2)cc(C)n1
Emax (%): 7
--
molecule: Cc1cc(OC2CCN([C@@H](C)c3nc4c(cc3F)CCO4)CC2)cc(C)n1 (single isomer, unassigned)
Emax (%): 8
--
molecule: CC(c1nc2c(cc1F)OCCO2)N1CCC(Oc2ccc(C#N)nn2)CC1 (stereo not drawn)
Emax (%): 66
--
molecule: Cc1cc(OC2CCN(C(C)c3nc4c(cc3F)CCO4)CC2)cc(C)n1 (stereo not drawn)
Emax (%): 87
--
molecule: Cc1cc(C(F)(F)F)cc(OC2CCN(C(C)c3nc4c(cc3F)OCCO4)CC2)n1 (stereo not drawn)
Emax (%): 84
--
molecule: Cc1ccnc(OC2CCN(C(C)c3ccc4c(n3)OCCO4)CC2)c1 (stereo not drawn)
Emax (%): 57
--
molecule: CC(c1nc2c(cc1F)OCCO2)N1CCC(Oc2ccc(C(=O)N(C(C)C)C(C)C)nc2)CC1 (stereo not drawn)
Emax (%): 59
--
molecule: CC(c1nc2c(cc1F)OCCO2)N1CCC(Oc2cnc(C(F)(F)F)nc2)CC1 (stereo not drawn)
Emax (%): 75
--
molecule: Cc1cncc(OC2CCN(C(C)c3ccc4c(n3)OCCO4)CC2)c1 (stereo not drawn)
Emax (%): 67
--
molecule: Cc1cc(NC2CCN(C(C)c3nc4c(cc3F)OCCO4)CC2)cc(C)n1 (stereo not drawn)
Emax (%): 87
--
molecule: Cc1cc(OC2CCN(C(C)c3nc4c(cc3F)OCCO4)CC2)cc(C(F)F)n1 (stereo not drawn)
Emax (%): 80

* * *

- targetOrSystem: OGA (Homo sapiens, UniProt O60502)
- Construct: HEK293 cells inducible for P301L mutant human Tau (isoform 2N4R) were established at Janssen; endogenous in cells; host or cells: HEK293 cells inducible for P301L mutant human Tau (2N4R)
- Sequence (O60502 1-916): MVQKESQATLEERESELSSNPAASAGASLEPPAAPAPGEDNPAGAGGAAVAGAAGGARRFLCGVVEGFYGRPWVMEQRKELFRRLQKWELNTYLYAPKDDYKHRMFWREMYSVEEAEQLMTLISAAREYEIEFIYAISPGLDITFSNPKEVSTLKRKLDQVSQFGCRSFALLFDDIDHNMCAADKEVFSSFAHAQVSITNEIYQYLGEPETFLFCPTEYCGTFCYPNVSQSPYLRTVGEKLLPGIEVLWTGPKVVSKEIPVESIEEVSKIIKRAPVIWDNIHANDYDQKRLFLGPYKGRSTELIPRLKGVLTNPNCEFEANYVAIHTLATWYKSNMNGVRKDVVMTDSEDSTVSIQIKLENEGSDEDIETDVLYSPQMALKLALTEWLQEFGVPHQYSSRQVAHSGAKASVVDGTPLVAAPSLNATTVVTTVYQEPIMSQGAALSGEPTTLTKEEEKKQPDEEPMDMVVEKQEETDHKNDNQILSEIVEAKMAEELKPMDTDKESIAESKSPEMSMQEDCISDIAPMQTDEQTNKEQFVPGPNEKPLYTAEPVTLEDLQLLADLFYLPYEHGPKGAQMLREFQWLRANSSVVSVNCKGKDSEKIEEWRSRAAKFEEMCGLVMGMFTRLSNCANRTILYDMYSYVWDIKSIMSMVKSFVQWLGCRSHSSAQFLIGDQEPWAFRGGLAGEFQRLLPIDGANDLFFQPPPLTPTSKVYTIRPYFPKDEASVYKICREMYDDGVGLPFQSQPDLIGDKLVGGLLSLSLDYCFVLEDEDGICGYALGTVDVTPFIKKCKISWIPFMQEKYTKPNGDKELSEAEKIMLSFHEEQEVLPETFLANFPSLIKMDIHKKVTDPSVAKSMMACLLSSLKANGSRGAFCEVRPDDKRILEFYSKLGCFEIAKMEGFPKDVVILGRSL
- protocolSummary: OGA cellular assay (ICC detection of O-GlcNAcylated proteins in HEK293 cells inducible for P301L mutant human Tau)
- Assay type: cell-based
- experimentalSetup: HEK293 cells inducible for P301L mutant human Tau, 6 hours incubation; read-out: Cellular hOGA; pEC50 (converted)

molecule: Cc1cc(COC2CCN(C(C)c3nc4c(cc3F)OCCO4)CC2)cc(C(F)(F)F)n1 (centres unmarked) [Compound 169]
prefixOperator: =
EC50, nM: 51.3

molecule: CC(c1nc2c(cc1F)OCCO2)N1CCC(Oc2cnc(C(F)(F)F)nc2)CC1 (centres unmarked) [Compound 168]
prefixOperator: =
EC50, nM: 200

molecule: Cc1ccc(COC2CCN(C(C)c3nc4c(cc3F)OCCO4)CC2)cn1 (centres unmarked) [Compound 138]
prefixOperator: =
EC50, nM: 158

molecule: Cc1ncccc1OC1CCN(C(C)c2ccc3c(n2)OCCO3)CC1 (centres unmarked) [Compound 116]
prefixOperator: >
EC50, nM: 1000

molecule: CC(c1ccc2c(n1)OCCO2)N1CCC(Oc2cnc(C3CC3)nc2)CC1 (centres unmarked) [Compound 120]
prefixOperator: =
EC50, nM: 251

Provenance of the data: patent US20210122763A1
